Where do the numbers come from? From ChEMBL document CHEMBL1124216.

Test system: Mus musculus
PROTOCOL_DETAILS: Antipentylene tetrazole activity was determined in mice when administered perorally
Assay type: functional
ASSAY_SETUP: po
Known ED50 of a selection of molecules
Please state the figure in mg/kg; there is no need to write the unit.

Worked cases, ED50 given:
O=C1NC(=O)C(c2ccccc2)(c2ccccc2)N1 [PHENYTOIN] :: 3.7
CN1CCN(C2=Nc3ccc(Br)cc3CC=C2c2ccccc2)CC1.Cl.Cl :: 8.3
CCN1CCN(C2=Nc3ccc(Cl)cc3CC=C2c2ccccc2)CC1.Cl.Cl :: 34.7

# context switch: different molecule, same ED50
Data request: Item NC(=O)N1c2ccccc2C=Cc2ccccc21 [CARBAMAZEPINE] has what recorded ED50?
Data returned: 10.3

* * *

System: Mus musculus
PROTOCOL_DETAILS: Antitremorine activity(TRM) of mice after peroral administration of 100 mg/kg of compound; Slight inhibition (31-50%)
Assay type: functional
ASSAY_SETUP: route oral
TEST_READOUT: inhibition in vivo at 100 mg/kg (%)
Please state the figure in %; there is no need to write the unit.

Worked cases, inhibition in vivo at 100 mg/kg given:
CCN1CCN(C2=Nc3ccc(C(C)C)cc3CC=C2c2ccccc2)CC1.O=C(O)/C=C/C(=O)O :: 31
CN1CCN(C2=Nc3ccccc3CC=C2c2ccc(Cl)cc2)CC1.Cl.Cl :: 31
Cl.Cl.OCCN1CCN(C2=Nc3ccccc3CC=C2c2ccc(Cl)cc2)CC1 :: 31
CCCCN1CCN(C2=Nc3ccc(CC)cc3CC=C2c2ccccc2)CC1.O=C(O)/C=C/C(=O)O :: 31
CCN1CCN(C2=Nc3ccccc3CC=C2c2ccccc2Cl)CC1.Cl.Cl :: 31

Data request: Item `Cl.Cl.OCCN1CCN(C2=Nc3ccccc3CC=C2c2ccccc2Cl)CC1` has what recorded inhibition in vivo at 100 mg/kg?
Data returned: 31

Data request: Item `Cc1ccc(C2=CCc3ccccc3N=C2N2CCN(C)CC2)cc1.Cl.Cl` has what recorded inhibition in vivo at 100 mg/kg?
Data returned: 31

Data request: Item `CCCN1CCN(C2=Nc3ccc(CC)cc3CC=C2c2ccccc2)CC1.O=C(O)/C=C/C(=O)O` has what recorded inhibition in vivo at 100 mg/kg?
Data returned: 31

Data request: Item `CN1CCN(C2=Nc3ccccc3CC=C2c2ccccc2Cl)CC1.Cl.Cl` has what recorded inhibition in vivo at 100 mg/kg?
Data returned: 31

* * *

Test system: Mus musculus
PROTOCOL_DETAILS: Exploratory activity of mice determined by an antimex activity meter, 50 mg/kg of dose was administered perorally
Format: functional
ASSAY_SETUP: Mus musculus, po
Known inhibition in vivo at 50 mg/kg of a selection of molecules
Please state the figure in %; there is no need to write the unit.

CN1CCN(C2=Nc3ccccc3CC=C2c2ccc(Br)cc2)CC1.Cl.Cl :: 13.2

Data request: Item `Cl.Cl.OCCN1CCN(C2=Nc3ccccc3CC=C2c2ccc(Br)cc2)CC1` has what recorded inhibition in vivo at 50 mg/kg?
Data returned: 36.1

Data request: Item `Cl.Cl.OCCN1CCN(C2=Nc3ccccc3CC=C2c2ccc(F)cc2)CC1` has what recorded inhibition in vivo at 50 mg/kg?
Data returned: 68.4

Data request: Item `CCN1CCN(C2=Nc3ccccc3CC=C2c2ccc(F)cc2)CC1.Cl.Cl` has what recorded inhibition in vivo at 50 mg/kg?
Data returned: 86.8

* * *

Test system: Mus musculus
PROTOCOL_DETAILS: The homovanillic acid (HVA) levels in mouse brain at 10 mg/kg of dose.
Format: functional
Known Control of a selection of compounds
Please state the figure in %; there is no need to write the unit.

Worked cases, Control given:
Cl.Cl.OCCN1CCN(C2=Nc3ccccc3CC=C2c2ccc(Br)cc2)CC1 :: 181
CN1CCN(C2=Nc3ccccc3CC=C2c2ccc(F)cc2)CC1.Cl.Cl :: 197
Cl.Cl.OCCN1CCN(C2=Nc3ccccc3CC=C2c2ccc(F)cc2)CC1 :: 243
CCCN1CCN(C2=Nc3ccccc3CC=C2c2ccc(F)cc2)CC1.O=C(O)/C=C/C(=O)O :: 328

Data request: What Control appears in the records for this compound with Mus musculus? `Fc1ccc(C2=CCc3ccccc3N=C2N2CCN(C3CCCCC3)CC2)cc1.O=C(O)/C=C/C(=O)O`
Data returned: 295

Data request: What Control appears in the records for this compound with Mus musculus? `CCN1CCN(C2=Nc3ccccc3CC=C2c2ccc(F)cc2)CC1.Cl.Cl`
Data returned: 432

Data request: What Control appears in the records for this compound with Mus musculus? `CN1CCN(C2=Nc3ccccc3CC=C2c2ccc(Br)cc2)CC1.Cl.Cl`
Data returned: 162

Data request: What Control appears in the records for this compound with Mus musculus? `Cl.Cl.OCCN1CCN(C2=Nc3ccccc3CC=C2c2ccc(Cl)cc2)CC1`
Data returned: 265

* * *

Tested on: Mus musculus
PROTOCOL_DETAILS: The homovanillic acid (HVA) levels in mouse brain at 50 mg/kg of dose.
Type: functional
TEST_READOUT: Control (%)
Please state the figure in %; there is no need to write the unit.

Cl.Cl.OCCN1CCN(C2=Nc3ccccc3CC=C2c2ccc(F)cc2)CC1 :: 349
Cl.Cl.OCCN1CCN(C2=Nc3ccccc3CC=C2c2ccc(Cl)cc2)CC1 :: 382
Cl.Cl.OCCN1CCN(C2=Nc3ccccc3CC=C2c2ccc(Br)cc2)CC1 :: 335
CCCN1CCN(C2=Nc3ccccc3CC=C2c2ccc(F)cc2)CC1.O=C(O)/C=C/C(=O)O :: 557
CN1CCN(C2=Nc3ccccc3CC=C2c2ccc(F)cc2)CC1.Cl.Cl :: 400
CCN1CCN(C2=Nc3ccccc3CC=C2c2ccc(F)cc2)CC1.Cl.Cl :: 461
Fc1ccc(C2=CCc3ccccc3N=C2N2CCN(C3CCCCC3)CC2)cc1.O=C(O)/C=C/C(=O)O :: 343

# context switch: different molecule, same Control
Data request: Item `CN1CCN(C2=Nc3ccccc3CC=C2c2ccc(Br)cc2)CC1.Cl.Cl` has what recorded Control?
Data returned: 294

* * *

Known log10 ED50 of a selection of molecules
Tested on: Mus musculus
PROTOCOL_DETAILS: Antimaximal electroshock seizure activity was determined in mice when administered perorally
Format: functional
ASSAY_SETUP: po
Scale type: logarithmic (base 10). Underlying ED50 unit: mg/kg.

Worked cases, log10 ED50 given:
CCN1CCN(C2=Nc3ccc(Cl)cc3CC=C2c2ccccc2)CC1.Cl.Cl :: 1.97
NC(=O)N1c2ccccc2C=Cc2ccccc21 [CARBAMAZEPINE] :: 1.12
OCCN1CCN(C2=Nc3ccc(Br)cc3CC=C2c2ccccc2)CC1 :: 1.16
CCN1CCN(C2=Nc3ccc(Br)cc3CC=C2c2ccccc2)CC1.Cl.Cl :: 1.49

# context switch: different molecule, same log10 ED50
Data request: Item `O=C1NC(=O)C(c2ccccc2)(c2ccccc2)N1` has what recorded log10 ED50?
Data returned: 0.90

* * *

Tested on: Mus musculus
PROTOCOL_DETAILS: Antimaximal electroshock seizure activity was determined in mice when administered perorally
Assay type: functional
ASSAY_SETUP: po
Known ED50 of a selection of compounds

CN1CCN(C2=Nc3ccc(F)cc3CC=C2c2ccccc2)CC1.Cl.Cl :: > 500 mg/kg
CCN1CCN(C2=Nc3ccc(F)cc3CC=C2c2ccccc2)CC1.Cl.Cl :: > 500 mg/kg
Cl.Cl.OCCN1CCN(C2=Nc3ccc(F)cc3CC=C2c2ccccc2)CC1 :: > 500 mg/kg
Cl.Cl.OCCN1CCN(C2=Nc3ccccc3CC=C2c2ccccc2)CC1 :: > 100 mg/kg

Data request: What ED50 appears in the records for this compound with Mus musculus? `CN1CCN(C2=Nc3ccccc3CC=C2c2ccccc2)CC1.Cl.Cl`
Data returned: > 100 mg/kg

* * *

Test system: Mus musculus
PROTOCOL_DETAILS: Antipentylene tetrazole activity was determined in mice when administered perorally
Type: functional
ASSAY_SETUP: po
So basically: is ED50 under 30 mg/kg? Then Condition met. Not under? Then Condition not met.

Please review the entries below; each comes with its answer.
CCN1CCN(C2=Nc3ccc(F)cc3CC=C2c2ccccc2)CC1.Cl.Cl :: Condition not met
Cc1ccc2c(c1)CC=C(c1ccccc1)C(N1CCN(C)CC1)=N2.Cl.Cl :: Condition not met
CCN1CCN(C2=Nc3ccc(C)cc3CC=C2c2ccccc2)CC1.Cl.Cl :: Condition not met
Cl.Cl.OCCN1CCN(C2=Nc3ccc(Cl)cc3CC=C2c2ccccc2)CC1 :: Condition met
CCN1CCN(C2=Nc3ccc(Br)cc3CC=C2c2ccccc2)CC1.Cl.Cl :: Condition met
OCCN1CCN(C2=Nc3ccc(Br)cc3CC=C2c2ccccc2)CC1 :: Condition met
CN1CCN(C2=Nc3ccc(F)cc3CC=C2c2ccccc2)CC1.Cl.Cl :: Condition not met
CN1CCN(C2=Nc3ccc(Cl)cc3CC=C2c2ccccc2)CC1.Cl.Cl :: Condition not met
Cl.Cl.OCCN1CCN(C2=Nc3ccc(F)cc3CC=C2c2ccccc2)CC1 :: Condition not met

Data request: Say whether its ED50 is strictly beneath 30 mg/kg. Entry: `Cc1ccc2c(c1)CC=C(c1ccccc1)C(N1CCN(CCO)CC1)=N2.O=C(O)/C=C/C(=O)O`
Data returned: Condition not met
